meta.source: the RNAGym collection of RNA variant scans (doi:10.1101/gad.245936.114)

B1: tRNA (parent)
chain: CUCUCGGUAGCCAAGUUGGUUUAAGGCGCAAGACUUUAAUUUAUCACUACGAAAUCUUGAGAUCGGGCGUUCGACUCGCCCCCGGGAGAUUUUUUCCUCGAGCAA

variants of: B1; assay: nonsense suppression (GFP-seq) (ratio to wild type); higher = more function; SUP4oc tRNA, yeast GFP reporter sort-seq
Variants at the floor of the assay were thinned out.
Known nonsense suppression of a selection of variants

mutationKey: A54C G78A
relationSign: =
nonsense suppression: 0.107
--
mutationKey: C5U G10A A13G G73A C75A G86C
relationSign: ≤
nonsense suppression: 0.026
--
mutationKey: A24C C75U
relationSign: =
nonsense suppression: 1.18
--
mutationKey: C75U G85U
relationSign: =
nonsense suppression: 1.12
--
mutationKey: A14U G32C G88U
relationSign: ≤
nonsense suppression: 0.026
--
mutationKey: U20A A60U C79U
relationSign: =
nonsense suppression: 0.212
--
mutationKey: A33U U63A
relationSign: =
nonsense suppression: 0.0268
--
mutationKey: A24C G65A
relationSign: =
nonsense suppression: 0.0366
--
mutationKey: C5A U63A G66C
relationSign: ≤
nonsense suppression: 0.026
--
mutationKey: U2A U63C G84U
relationSign: ≤
nonsense suppression: 0.026
--
mutationKey: G18A U21G C34U
relationSign: ≤
nonsense suppression: 0.026
--
mutationKey: U4A A14G
relationSign: =
nonsense suppression: 0.0942
--
mutationKey: A24U C75U C81U
relationSign: ≤
nonsense suppression: 0.026
--
mutationKey: A24C C72U G84A
relationSign: ≤
nonsense suppression: 0.026
--
mutationKey: A23G G78U
relationSign: =
nonsense suppression: 0.0956
--
mutationKey: U4G G59A
relationSign: =
nonsense suppression: 0.0506
--
mutationKey: C11G G66A G69C
relationSign: =
nonsense suppression: 0.0424
--
mutationKey: C12G A33U U55C C72A G73A U76C
relationSign: ≤
nonsense suppression: 0.026
--
mutationKey: U35G G59U A60G
relationSign: ≤
nonsense suppression: 0.026
--
mutationKey: A13U U22G
relationSign: =
nonsense suppression: 1.06
--
mutationKey: A24C G26U
relationSign: =
nonsense suppression: 0.038
--
mutationKey: A13U G61C
relationSign: =
nonsense suppression: 0.191
